The origin of these recorded values is ChEMBL document CHEMBL4311949.

Hi there, I'd appreciate the recorded GI50 at 24 h for every entry that follows.
PROTOCOL_DESCRIPTION: Cytotoxicity against CHOK1 cells stably expressing human PDL1 co-cultured with human Jurkat T cell expressing human PD1 assessed as growth inhibition measured after 24 hrs by XTT assay
Type: cell-based, Cricetulus griseus, CHO-K1
REPORTED_CONDITIONS: chinese hamster
Answer with a number only, understood to be in µM.

Q: So what does the record say about GI50 at 24 h for CC(=O)NCCNCc1cc(C)c(OCc2cccc(-c3ccccc3)c2C)cc1OCc1cncc(C#N)c1 ?
Result: 8.1

Q: Same read-out for CC(=O)NCCNCc1cc(C)c(OCc2cccc(-c3cccc(COc4cc(OCc5cncc(C#N)c5)c(CNCCNC(C)=O)cc4C)c3C)c2C)cc1OCc1cncc(C#N)c1 ?
Result: 11.8

Q: Same read-out for COc1nc(OCc2cccc(-c3cccc(COc4ccc(CNCCNC(C)=O)c(OC)n4)c3C)c2C)ccc1CNCCNC(C)=O ?
Result: 3.1

Q: Same read-out for COc1nc(OCc2cccc(-c3ccccc3)c2C)ccc1CNCCNC(C)=O ?
Result: 4.5

====

PROTOCOL_DESCRIPTION: Toxicity weighted activity index, ratio of GI50 for cytotoxicity against CHOK1 cells stably expressing human PDL1 co-cultured with human Jurkat T cell expressing human PD1 to EC50 for inhibition of PD1/PDL1 interaction in human Jurkat cells co-cultured with human U2OS cells expressing PDL1
Type: cell-based
REPORTED_CONDITIONS: chinese hamster; read-out: Ratio GI50/EC50
QUANTITY: selectivity ratio
// no unit string in output, number only

Q: So what does the record say about selectivity ratio for COc1nc(OCc2cccc(-c3cccc(COc4ccc(CNCCNC(C)=O)c(OC)n4)c3C)c2C)ccc1CNCCNC(C)=O ?
Result: 9.3

Q: Same read-out for CC(=O)NCCNCc1cc(C)c(OCc2cccc(-c3ccccc3)c2C)cc1OCc1cncc(C#N)c1 ?
Result: 37

====

PROTOCOL_DESCRIPTION: Toxicity weighted activity index, ratio of GI50 for Cytotoxicity against human Jurkat T cell expressing human PD1 co-cultured with CHOK1 cells stably expressing human PDL1 to EC50 for inhibition of human PD1 stably expressed in human Jurkat T cells co-expressing NFAT-induced luciferase/human PDL1 stably expressed in CHOK1 cells co-expressing aAPC protein-protein interaction
Type: cell-based
REPORTED_CONDITIONS: read-out: Ratio GI50/EC50
Hi there, I'd appreciate the recorded selectivity ratio for every entry that follows.
// no unit string in output, number only

Q: So what does the record say about selectivity ratio for CC(=O)NCCNCc1cc(C)c(OCc2cccc(-c3ccccc3)c2C)cc1OCc1cncc(C#N)c1 ?
Result: 2.7

Q: Same read-out for COc1nc(OCc2cccc(-c3cccc(COc4ccc(CNCCNC(C)=O)c(OC)n4)c3C)c2C)ccc1CNCCNC(C)=O ?
Result: 0.7

====

PROTOCOL_DESCRIPTION: Toxicity weighted activity index, ratio of GI50 for cytotoxicity against CHOK1 cells stably expressing human PDL1 co-cultured with human Jurkat T cell expressing human PD1 to EC50 for inhibition of human PD1 stably expressed in human Jurkat T cells co-expressing NFAT-induced luciferase/human PDL1 stably expressed in CHOK1 cells co-expressing aAPC protein-protein interaction
Assay type: cell-based
REPORTED_CONDITIONS: chinese hamster; read-out: Ratio GI50/EC50
Hi there, I'd appreciate the recorded selectivity ratio for every entry that follows.
// no unit string in output, number only

Q: So what does the record say about selectivity ratio for COc1nc(OCc2cccc(-c3cccc(COc4ccc(CNCCNC(C)=O)c(OC)n4)c3C)c2C)ccc1CNCCNC(C)=O ?
Result: 0.7

Q: Same read-out for CC(=O)NCCNCc1cc(C)c(OCc2cccc(-c3ccccc3)c2C)cc1OCc1cncc(C#N)c1 ?
Result: 2.7

====

Hi there, I'd appreciate the recorded GI50 at 24 h for every entry that follows.
PROTOCOL_DESCRIPTION: Cytotoxicity against human Jurkat T cell expressing human PD1 co-cultured with CHOK1 cells stably expressing human PDL1 assessed as growth inhibition measured after 24 hrs by XTT assay
Type: cell-based
Answer with a number only, understood to be in µM.

Q: So what does the record say about GI50 at 24 h for CC(=O)NCCNCc1cc(C)c(OCc2cccc(-c3cccc(COc4cc(OCc5cncc(C#N)c5)c(CNCCNC(C)=O)cc4C)c3C)c2C)cc1OCc1cncc(C#N)c1 ?
Result: 11.8

Q: Same read-out for COc1nc(OCc2cccc(-c3cccc(COc4ccc(CNCCNC(C)=O)c(OC)n4)c3C)c2C)ccc1CNCCNC(C)=O ?
Result: 3.1

Q: Same read-out for COc1nc(OCc2cccc(-c3ccccc3)c2C)ccc1CNCCNC(C)=O ?
Result: 4.5

Q: Same read-out for CC(=O)NCCNCc1cc(C)c(OCc2cccc(-c3ccccc3)c2C)cc1OCc1cncc(C#N)c1 ?
Result: 8.1

====

TEST_SYSTEM: Programmed cell death protein 1/Programmed cell death 1 ligand 1 (Homo sapiens)
Sequence (Q15116 whole entry, the tested form may be a part): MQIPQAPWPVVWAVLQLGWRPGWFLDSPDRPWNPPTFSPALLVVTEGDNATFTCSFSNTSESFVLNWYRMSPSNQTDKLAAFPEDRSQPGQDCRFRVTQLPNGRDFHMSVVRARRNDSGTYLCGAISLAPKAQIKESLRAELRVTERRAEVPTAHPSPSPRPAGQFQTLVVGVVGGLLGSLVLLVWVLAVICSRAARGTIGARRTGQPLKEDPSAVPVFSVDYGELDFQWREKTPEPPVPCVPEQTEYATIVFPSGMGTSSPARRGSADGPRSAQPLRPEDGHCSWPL
Sequence (Q9NZQ7 whole entry, the tested form may be a part): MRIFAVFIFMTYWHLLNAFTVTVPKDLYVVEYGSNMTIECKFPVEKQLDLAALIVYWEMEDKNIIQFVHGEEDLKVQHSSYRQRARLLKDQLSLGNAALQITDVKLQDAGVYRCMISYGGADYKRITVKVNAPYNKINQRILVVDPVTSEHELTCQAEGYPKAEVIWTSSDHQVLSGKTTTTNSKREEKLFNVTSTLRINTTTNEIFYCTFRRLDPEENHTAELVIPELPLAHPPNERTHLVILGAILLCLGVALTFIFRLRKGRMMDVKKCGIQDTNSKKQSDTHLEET
PROTOCOL_DESCRIPTION: Inhibition of human Fc-tagged PD1 N-terminal domain (Leu25 to Gln167 residues) expressed in HEK293 cells/human His-tagged PDL1 (Phe19 to Arg238 residues) expressed in HEK293 cells protein-protein interaction after 1 hr by APC-labeled anti-His antibody/Eu-labeled anti-human IgG based HTRF assay
Type: cell-based
pIC50: −log10 of the molar value.
Hi, to clarify the labels: 1 covers pIC50 from 8 upward, 0 covers anything below 8.

Q: Textbook exercise: given the entry CC(=O)NCCNCc1ccc(OCc2ccc(COc3ccc(CNCCNC(C)=O)c(OCc4cncc(C#N)c4)c3)c3ccccc23)cc1OCc1cncc(C#N)c1 , state whether its pIC50 is greater than or equal to 8.
Result: 0

Q: Same read-out for CCNCc1cc(C)c(OCc2cccc(-c3cccc(COc4cc(OCc5cncc(C#N)c5)c(CNCC)cc4C)c3C)c2C)cc1OCc1cncc(C#N)c1 ?
Result: 1

Q: Same read-out for CCNCc1cc(C)c(OCc2cccc(-c3ccccc3)c2C)cc1OCc1cncc(C#N)c1 ?
Result: 1

Q: Same read-out for CC(=O)NCCNCc1ccc(OCc2ccc3cc(COc4ccc(CNCCNC(C)=O)c(OCc5cncc(C#N)c5)c4)ccc3c2)cc1OCc1cncc(C#N)c1 ?
Result: 0

Q: Same read-out for CC(=O)NCCNCc1ccc(OCc2ccc(COc3ccc(CNCCNC(C)=O)c(OCc4cncc(C#N)c4)c3)cc2)cc1OCc1cncc(C#N)c1 ?
Result: 0

Q: Same read-out for CC(=O)NCCNCc1ccc(OCc2cccc(COc3ccc(CNCCNC(C)=O)c(OCc4cncc(C#N)c4)c3)c2)cc1OCc1cncc(C#N)c1 ?
Result: 0

Q: Same read-out for CC(=O)NCCNCc1cc(C)c(OCc2cccc(-c3ccccc3)c2C)cc1OCc1cncc(C#N)c1 ?
Result: 1

Q: Same read-out for COc1nc(OCc2cccc(-c3cccc(COc4ccc(CNCCNC(C)=O)c(OC)n4)c3C)c2C)ccc1CNCCNC(C)=O ?
Result: 0

====

Hi there, I'd appreciate the recorded MNTC at 24 h for every entry that follows.
PROTOCOL_DESCRIPTION: Cytotoxicity against CHOK1 cells stably expressing human PDL1 co-cultured with human Jurkat T cell expressing human PD1 measured after 24 hrs by XTT assay
Format: cell-based, Cricetulus griseus, CHO-K1
REPORTED_CONDITIONS: chinese hamster; read-out: MNCC
Answer with a number only, understood to be in nM.

Q: So what does the record say about MNTC at 24 h for COc1nc(OCc2cccc(-c3ccccc3)c2C)ccc1CNCCNC(C)=O ?
Result: 2560

Q: Same read-out for CC(=O)NCCNCc1cc(C)c(OCc2cccc(-c3cccc(COc4cc(OCc5cncc(C#N)c5)c(CNCCNC(C)=O)cc4C)c3C)c2C)cc1OCc1cncc(C#N)c1 ?
Result: 2560

Q: Same read-out for COc1nc(OCc2cccc(-c3cccc(COc4ccc(CNCCNC(C)=O)c(OC)n4)c3C)c2C)ccc1CNCCNC(C)=O ?
Result: 2560

Q: Same read-out for CC(=O)NCCNCc1cc(C)c(OCc2cccc(-c3ccccc3)c2C)cc1OCc1cncc(C#N)c1 ?
Result: 2560

====

Hi there, I'd appreciate the recorded selectivity ratio for every entry that follows.
PROTOCOL_DESCRIPTION: Toxicity weighted activity index, ratio of GI50 for Cytotoxicity against human Jurkat T cell expressing human PD1 co-cultured with CHOK1 cells stably expressing human PDL1 to EC50 for inhibition of PD1/PDL1 interaction in human Jurkat cells co-cultured with human U2OS cells expressing PDL1
Format: cell-based
REPORTED_CONDITIONS: read-out: Ratio GI50/EC50
// no unit string in output, number only

Q: So what does the record say about selectivity ratio for CC(=O)NCCNCc1cc(C)c(OCc2cccc(-c3ccccc3)c2C)cc1OCc1cncc(C#N)c1 ?
Result: 37

Q: Same read-out for COc1nc(OCc2cccc(-c3cccc(COc4ccc(CNCCNC(C)=O)c(OC)n4)c3C)c2C)ccc1CNCCNC(C)=O ?
Result: 9.3
